- assay method text: Viscosity in aqueous solution at 20° C. (Example 82, Tables 1 and 2)
- Type: physicochemical
- measurement setup: calculated for 350 mgI/ml
reported endpoint: Viscosity 350 mgI/ml (CALCULATED) (mPas)

1) O=C(Nc1c(I)c(CC(O)CO)c(I)c(NC(=O)C(O)CO)c1I)C(O)CO (centres unmarked) [Example 64]; 8.3
2) O=C(CO)Nc1c(I)c(CC(O)CO)c(I)c(N(CCO)C(=O)CO)c1I (centres unmarked) [Example 72]; 7.2
3) O=C(NCCO)c1c(I)c(CO)c(I)c(N(CC(O)CO)C(=O)C(O)CO)c1I (centres unmarked) [Example 66]; 9.3
4) O=C(NC(CO)C(O)CO)c1c(I)c(CO)c(I)c(N(CCO)C(=O)C(O)CO)c1I (centres unmarked) [Example 39]; 12.0
5) CC(O)C(=O)N(CCO)c1c(I)c(CO)c(I)c(C(=O)NCC(O)CO)c1I (centres unmarked) [Example 28]; 9.2

====

- assay method text: Viscosity in aqueous solution at 20° C. (Example 82, Tables 1 and 2)
- Type: physicochemical
- measurement setup: calculated for 400 mgI/ml
# Viscosity at 400 mgI/ml (CALCULATED) per record follows
reported endpoint: Viscosity at 400 mgI/ml (CALCULATED) (mPas)

1) O=C(NCCO)c1c(I)c(CO)c(I)c(N(CC(O)CO)C(=O)C(O)CO)c1I (stereo not shown); 15.2
2) CC(O)C(=O)Nc1c(I)c(CO)c(I)c(C(=O)NC(CO)C(O)CO)c1I (stereo not shown); 15.6
3) O=C(NCC(O)CO)c1c(I)c(CO)c(I)c(N(CC(O)CO)C(=O)CO)c1I (stereo not shown); 15.1
4) CC(O)C(=O)N(CCO)c1c(I)c(CO)c(I)c(C(=O)NCC(O)CO)c1I (stereo not shown); 14.6
